Cited source for all entries: ChEMBL document CHEMBL1143456

These records show Ki for 5-hydroxytryptamine receptor 1D (Homo sapiens).
Express it in nM; write the number only.

Here's what some known entries look like.
COc1cc2c(cc1N1C[C@@H](C)N(C)[C@@H](C)C1)N(C(=O)c1cccc(Cl)c1Cl)CC2: 251
COc1cc2c(cc1N1C[C@@H](C)N(C)[C@@H](C)C1)N(C(=O)Oc1cccc(C(F)(F)F)c1F)CC2: 31.6
COc1cc2c(cc1N1C[C@@H](C)N[C@@H](C)C1)N(C(=O)c1ccc(-c3ccc(C(C)=O)cc3C)cc1)CC2: 398
COc1cc2c(cc1N1C[C@@H](C)N(C)[C@@H](C)C1)N(C(=O)Oc1cccc(C(F)(F)F)c1Cl)CC2: 25.1
COc1cc2c(cc1N1C[C@@H](C)N(C)[C@@H](C)C1)N(C(=O)c1ccc(-c3cccc(C)n3)c3ccccc13)CC2: 100
COc1cc2c(cc1N1C[C@@H](C)N(C)[C@@H](C)C1)N(C(=O)Nc1cccc(C(F)(F)F)c1Cl)CC2: 50.1
COc1cc2c(cc1N1C[C@@H](C)N(C)[C@@H](C)C1)N(C(=O)Cc1cccc(F)c1C(F)(F)F)CC2: 200

Then there is this compound:
INPUT: # lookup: Ki of CN1CCN(c2cc3c(cc2Cl)CCN3C(=O)Nc2ccc(-c3ccncc3)c3ccccc23)CC1
OUTPUT: 1

* * *

Items are presented alongside their recorded Intrinsic clearance.
# Organism: Rattus norvegicus
# Method Description: Intrinsic clearance from rat liver microsomes
# Type: ADME, Microsome
Write the numeric value and append its unit.

CCN1[C@H](C)CN(c2cc3c(cc2OC)CCN3C(=O)c2ccc(-c3cccc(C)n3)c3ccccc23)C[C@@H]1C: 45 mL/min/g
COc1cc2c(cc1N1C[C@@H](C)N(C)[C@@H](C)C1)N(C(=O)c1ccc(-c3cccc(C)n3)c3ccccc13)CC2: 46 mL/min/g
COc1cc2c(cc1N1C[C@@H](C)N(C)[C@@H](C)C1)N(C(=O)Nc1cccc(Cl)c1Cl)CC2: 3 mL/min/g

Then there is this compound:
INPUT: # lookup: Intrinsic clearance of COc1cc2c(cc1N1C[C@@H](C)N[C@@H](C)C1)N(C(=O)c1ccc(-c3cccc(C)n3)c3ccccc13)CC2
OUTPUT: 12 mL/min/g

* * *

# Test Target: 5-hydroxytryptamine receptor 1B (Homo sapiens)
# Sequence (P28222 whole entry): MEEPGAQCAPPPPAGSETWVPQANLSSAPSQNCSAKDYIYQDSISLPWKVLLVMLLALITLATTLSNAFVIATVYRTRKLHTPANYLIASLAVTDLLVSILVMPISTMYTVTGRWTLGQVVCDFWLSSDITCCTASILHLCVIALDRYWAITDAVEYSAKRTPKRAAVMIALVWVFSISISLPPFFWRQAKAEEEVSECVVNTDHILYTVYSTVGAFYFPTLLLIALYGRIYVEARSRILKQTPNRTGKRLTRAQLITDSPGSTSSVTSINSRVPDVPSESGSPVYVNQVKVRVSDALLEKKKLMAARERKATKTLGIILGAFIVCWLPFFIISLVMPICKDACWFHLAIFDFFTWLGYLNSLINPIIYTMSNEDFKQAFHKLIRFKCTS
# Method Description: Intrinsic activity for human 5-hydroxytryptamine 1B receptor
Result Type: Intrinsic activity
Reply with the value as a number alone.

Here's what some known entries look like.
COc1cc2c(cc1N1C[C@@H](C)N(C)[C@@H](C)C1)N(C(=O)Cc1cccc(F)c1C(F)(F)F)CC2: 0.1
COc1cc2c(cc1N1C[C@@H](C)N(C)[C@@H](C)C1)N(C(=O)Nc1cccc(C(F)(F)F)c1F)CC2: 0
COc1cc2c(cc1N1C[C@@H](C)N(C)[C@@H](C)C1)N(C(=O)Oc1cccc(C(F)(F)F)c1F)CC2: 0.1
COc1cc2c(cc1N1C[C@@H](C)N(C)[C@@H](C)C1)N(C(=O)Cc1cccc(Cl)c1F)CC2: 0.1
COc1cc2c(cc1N1C[C@@H](C)N(C)[C@@H](C)C1)N(C(=O)Cc1cccc([N+](=O)[O-])c1)CC2: 0.1
COc1cc2c(cc1N1CCN(C)CC1)N(C(=O)Nc1cccc(Cl)c1Cl)CC2: 0.6

INPUT: Checklist item: Intrinsic activity tested on 5-hydroxytryptamine receptor 1B (Homo sapiens), entry COc1cc2c(cc1N1C[C@@H](C)N[C@@H](C)C1)N(C(=O)c1ccc(-c3ccc(N4CCCC4=O)nc3C)cc1)CC2 , value?
OUTPUT: 0

INPUT: Then COc1cc2c(cc1N1C[C@@H](C)N(C)[C@@H](C)C1)N(C(=O)Oc1cccc(C(F)(F)F)c1Cl)CC2 ?
OUTPUT: 0.15

INPUT: Then COc1cc2c(cc1N1C[C@@H](C)N[C@@H](C)C1)N(C(=O)c1ccc(-c3cc(C)ncc3C)cc1)CC2 ?
OUTPUT: 0

INPUT: Then COc1cc2c(cc1N1C[C@@H](C)N(C)[C@@H](C)C1)N(C(=O)Cc1cccc(C(F)(F)F)c1F)CC2 ?
OUTPUT: 0.1

INPUT: Then COc1cc2c(cc1N1C[C@@H](C)N(C)[C@@H](C)C1)N(C(=O)c1ccc(-c3ccccc3C)cc1)CC2 ?
OUTPUT: 0

INPUT: Then COc1cc2c(cc1N1C[C@@H](C)N[C@@H](C)C1)N(C(=O)c1ccc(-c3ccc(-c4noc(C)n4)cc3C)cc1)CC2 ?
OUTPUT: 0

* * *

These records show Ki for 5-hydroxytryptamine receptor 1B (Homo sapiens).
Express it in nM; write the number only.

INPUT: # lookup: Ki of COc1cc2c(cc1N1C[C@@H](C)N(C)[C@@H](C)C1)N(C(=O)Oc1cccc(C(F)(F)F)c1Cl)CC2
OUTPUT: 2.51

* * *

These records show pKi for UniProt:P28221.
pKi is defined as minus the log10 of a concentration measured in mol/L.

Here's what some known entries look like.
COc1cc2c(cc1N1CCN(C)CC1)N(C(=O)Nc1cccc(Cl)c1Cl)CC2: 7.90
COc1cc2c(cc1N1C[C@@H](C)N[C@@H](C)C1)N(C(=O)c1ccc(-c3cccc(C)n3)c3ccccc13)CC2: 6.90
COc1cc2c(cc1N1C[C@@H](C)N(C)[C@@H](C)C1)N(C(=O)c1ccc(-c3ccc(-c4noc(C)n4)cc3C)cc1)CC2: 7.80

INPUT: Checklist item: pKi tested on UniProt:P28221, entry COc1cc2c(cc1N1C[C@@H](C)N[C@@H](C)C1)N(C(=O)c1ccc(-c3cc(C)ncc3C)cc1)CC2 , value?
OUTPUT: 6.30

* * *

# Method Description: Intrinsic clearance from human liver microsomes
# Type: ADME, Microsome
Items are presented alongside their recorded Intrinsic clearance.
Express it in mL/min/g; write the number only.

Here's what some known entries look like.
COc1cc2c(cc1N1C[C@@H](C)N(C)[C@@H](C)C1)N(C(=O)c1ccc(-c3cccc(C)n3)c3ccccc13)CC2: 34
COc1cc2c(cc1N1C[C@@H](C)N[C@@H](C)C1)N(C(=O)c1ccc(-c3cccc(C)n3)c3ccccc13)CC2: 14
CCN1[C@H](C)CN(c2cc3c(cc2OC)CCN3C(=O)c2ccc(-c3cccc(C)n3)c3ccccc23)C[C@@H]1C: 47

INPUT: # lookup: Intrinsic clearance of COc1cc2c(cc1N1C[C@@H](C)N(C)[C@@H](C)C1)N(C(=O)Nc1cccc(Cl)c1Cl)CC2
OUTPUT: 3

* * *

These records show pKi for 5-hydroxytryptamine receptor 1B (Homo sapiens).
pKi is defined as minus the log10 of a concentration measured in mol/L.

COc1cc2c(cc1N1C[C@@H](C)N(C)[C@@H](C)C1)N(C(=O)Cc1cccc([N+](=O)[O-])c1)CC2: 7.80

INPUT: # lookup: pKi of COc1cc2c(cc1N1C[C@@H](C)N[C@@H](C)C1)N(C(=O)c1ccc(-c3cc(C)ncc3C)cc1)CC2
OUTPUT: 8.10

INPUT: Then COc1cc2c(cc1N1C[C@@H](C)N(C)[C@@H](C)C1)N(C(=O)Cc1cccc(Cl)c1F)CC2 ?
OUTPUT: 8.70

INPUT: Then COc1cc2c(cc1N1CCN(C)CC1)N(C(=O)Cc1cccc([N+](=O)[O-])c1)CC2 ?
OUTPUT: 8.10

INPUT: Then COc1cc2c(cc1N1C[C@@H](C)N(C)[C@@H](C)C1)N(C(=O)c1cccc(Cl)c1Cl)CC2 ?
OUTPUT: 7.90

INPUT: Then COc1cc2c(cc1N1C[C@@H](C)N(C)[C@@H](C)C1)N(C(=O)c1ccc(-c3ccccc3C)cc1)CC2 ?
OUTPUT: 9.20

* * *

# Test Target: 5-hydroxytryptamine receptor 1A (Homo sapiens, UniProt P08908)
# Sequence (P08908 whole entry): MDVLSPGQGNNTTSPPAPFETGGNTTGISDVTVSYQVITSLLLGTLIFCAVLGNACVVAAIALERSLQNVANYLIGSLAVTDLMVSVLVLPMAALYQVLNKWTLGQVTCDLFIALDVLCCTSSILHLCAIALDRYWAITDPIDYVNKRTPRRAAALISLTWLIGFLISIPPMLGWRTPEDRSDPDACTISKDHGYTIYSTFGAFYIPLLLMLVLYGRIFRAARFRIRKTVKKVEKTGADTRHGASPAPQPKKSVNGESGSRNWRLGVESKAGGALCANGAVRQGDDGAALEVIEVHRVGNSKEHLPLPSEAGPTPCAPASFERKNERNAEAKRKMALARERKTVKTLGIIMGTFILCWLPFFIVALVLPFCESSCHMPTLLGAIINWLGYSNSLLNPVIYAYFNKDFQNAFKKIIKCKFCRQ
Result Type: Ki (µM)
Express it in µM; write the number only.

Here's what some known entries look like.
COc1cc2c(cc1N1C[C@@H](C)N(C)[C@@H](C)C1)N(C(=O)c1ccc(-c3cccc(C)n3)c3ccccc13)CC2: 0.501
COc1cc2c(cc1N1CCN(C)CC1)N(C(=O)Cc1cccc([N+](=O)[O-])c1)CC2: 0.158
COc1cc2c(cc1N1C[C@@H](C)N[C@@H](C)C1)N(C(=O)c1ccc(-c3cccc(C)n3)c3ccccc13)CC2: 1

INPUT: # lookup: Ki of CCCN1[C@H](C)CN(c2cc3c(cc2OC)CCN3C(=O)c2ccc(-c3cccc(C)n3)c3ccccc23)C[C@@H]1C
OUTPUT: 0.0794

INPUT: Then CCN1[C@H](C)CN(c2cc3c(cc2OC)CCN3C(=O)c2ccc(-c3cccc(C)n3)c3ccccc23)C[C@@H]1C ?
OUTPUT: 0.501

INPUT: Then COc1cc2c(cc1N1CCN(C)CC1)N(C(=O)Nc1cccc(Cl)c1Cl)CC2 ?
OUTPUT: 0.0501

INPUT: Then CN1CCN(c2cc3c(cc2Cl)CCN3C(=O)Nc2ccc(-c3ccncc3)c3ccccc23)CC1 ?
OUTPUT: 0.00398
